Assay: Evaluation of Caco-2 membrane permeability
Type: in vitro ADME
Settings: human, Apical FaSSIF/HBSS pH 6.0 to Basal HBSS 4% BSA pH 7.4, 180 minutes, after 18 to 24 hours preincubation, read-out: Caco2 (Papp)
Numbered stars: 1 amine (or outer) side, 2 acyl side, 3 side chain; on linkers, the order of the positions; unused ones are H or OH. Bridge positions count the residues as written; N and C are the ends. Square brackets hold non-standard residues; d marks the D form. Peptide text beside a SMILES is read from it. * marks the point of attachment. hPhe(3,5-F2-4-CF3) = N[C@@H](CCc1cc(F)c(C(F)(F)F)c(F)c1)C(=O)O; hPhe(3-Cl-4-CF3) = N[C@@H](CCc1ccc(C(F)(F)F)c(Cl)c1)C(=O)O; NMePhe(4-Me) = CN[C@@H](Cc1ccc(C)cc1)C(=O)O; X1 = CN(C(CC(=O)[*:2])C(=O)C1CCCCC1)[*:1]; NMeGly(cPent) = CN[C@H](C(=O)O)C1CCCC1; NMeCha = CN[C@@H](CC1CCCCC1)C(=O)O; Hyp = O=C(O)[C@@H]1C[C@@H](O)CN1; NMeChg = CN[C@H](C(=O)O)C1CCCCC1; NMeF = CN[C@@H](Cc1ccccc1)C(=O)O; NMeI = CC[C@H](C)[C@H](NC)C(=O)O; NMeD = CN[C@@H](CC(=O)O)C(=O)O; NMeL = CN[C@@H](CC(C)C)C(=O)O; NMeV = CN[C@H](C(=O)O)C(C)C; NMeA = CN[C@@H](C)C(=O)O; Piperidide = C1CCN(*)CC1; Ac5c = NC1(C(=O)O)CCCC1; Aze = O=C(O)[C@@H]1CCN1; Sar = CNCC(=O)O; tBu = CC(C)(C)*
Papp A→B at 180 min of 20 nm/s or higher: fulfilled. Under 20 nm/s: not fulfilled.

Observe how each entry below is paired with its result.
Request: In plain terms: is recorded Papp A→B at 180 min at least 20 nm/s for CC[C@H](C)[C@H]1C(=O)N[C@@H](COC(C)(C)C)C(=O)N(C)[C@@H](Cc2ccccc2)C(=O)N(C)[C@@H](C(C)C)C(=O)N[C@H](C(=O)N2CCCCC2)CC(=O)N(C)[C@@H](C)C(=O)N(C)[C@@H](Cc2ccccc2)C(=O)N[C@@H](CC(C)C)C(=O)N(C)[C@@H](CC(C)C)C(=O)N[C@@H]([C@@H](C)O)C(=O)N(C)CC(=O)N1C [Compound 2] ([NMeA][NMeF]L[NMeL]T[Sar][NMeI]S(tBu)[NMeF][NMeV]D-Piperidide; lactam N-11) ?
Result: fulfilled

Request: Papp A→B at 180 min >= 20 nm/s for CCO[C@@H]1C[C@H]2C(=O)NC3(CCCC3)C(=O)N(C)[C@@H](C3CCCC3)C(=O)N(C)[C@H](C(=O)N(C)C)CC(=O)N(C)[C@@H](CC(C)C)C(=O)N[C@@H]([C@@H](C)CC)C(=O)N(C)[C@@H](C)C(=O)N3CC[C@H]3C(=O)N(C)[C@@H](CC3CCCCC3)C(=O)N(C)CC(=O)N[C@@H](CCc3cc(F)c(C(F)(F)F)c(F)c3)C(=O)N2C1 [Compound 8] ([NMeL]I[NMeA][Aze][NMeCha][Sar][hPhe(3,5-F2-4-CF3)][Hyp](Et)[Ac5c][NMeGly(cPent)][NMeD]-NMe2; lactam N-11) ?
Result: fulfilled

Request: I'd appreciate it if you could say whether CC[C@H](C)[C@@H]1NC(=O)[C@H](CC(C)C)N(C)C(=O)C[C@@H](C(=O)N(C)C)N(C)C(=O)[C@H]([C@@H](C)CC)N(C)C(=O)C2(CCCC2)NC(=O)[C@@H]2CCCN2C(=O)[C@H](CCc2ccc(C(F)(F)F)c(Cl)c2)NC(=O)CN(C)C(=O)[C@H](Cc2ccc(C)cc2)N(C)C(=O)[C@@H]2CCN2C(=O)[C@H](C)N(C)C1=O [Compound 7] ([NMeL]I[NMeA][Aze][NMePhe(4-Me)][Sar][hPhe(3-Cl-4-CF3)]P[Ac5c][NMeI][NMeD]-NMe2; lactam N-11) has Papp A→B at 180 min at least equal to 20 nm/s.
Result: fulfilled

***
Request: Kindly determine if Papp A→B at 180 min recorded for CC[C@H](C)[C@@H]1NC(=O)[C@H](CC(C)C)N(C)C(=O)CC(C(=O)C2CCCCC2)N(C)C(=O)[C@H](C2CCCCC2)N(C)C(=O)C2(CCCC2)NC(=O)[C@@H]2CCCN2C(=O)[C@H](CCc2ccc(C(F)(F)F)c(Cl)c2)NC(=O)CN(C)C(=O)[C@H](CC2CCCCC2)N(C)C(=O)CN(C)C(=O)CN(C)C1=O (some centres unmarked) [Compound 1] (cyclo([Ac5c][NMeChg][X1][NMeL]I[Sar][Sar][NMeCha][Sar][hPhe(3-Cl-4-CF3)]P)) is above or exactly 20 nm/s.
Result: not fulfilled

Request: API: above_or_equal(metric=Papp A→B at 180 min, cutoff=20 nm/s) for item `CCO[C@@H]1C[C@H]2C(=O)NC3(CCC3)C(=O)N(C)[C@@H](C3CCCC3)C(=O)N(C)[C@H](C(=O)N(C)C)CC(=O)N(C)[C@@H](CC)C(=O)N[C@@H]([C@@H](C)CC)C(=O)N(C)CC(=O)N(C)[C@H]3C/C=C\CCN(C3=O)[C@@H](Cc3ccc(C(F)(F)F)cc3)C(=O)N(C)CC(=O)N[C@@H](CCc3cc(F)c(C(F)(F)F)c(F)c3)C(=O)N2C1`
Result: not fulfilled

Provenance of the data: patent US20260273107A1
